experiment: IN Cell qHTS Assay for Inhibitors of the mTORC1 Signaling Pathway in MEF (Tsc2-/-, p53-/-) Cells: Sytravon; conditions: phospho-rpS6 immunofluorescence, 24 h; series mostly up to 38.3 µM; further: nearly all actives have a fitted effect of over 60% in size
The campaign covered roughly 2,100 compounds. About 210 (10%) were called active. Another 53% or so got no clear call; they are omitted. The call rests on the fitted dose curve; in most records, active means well fitted inhibition curve with a large enough effect; inconclusive means small, poorly fitted or top-dose-only effect, or effect the other way; inactive means no such curve, though single readings can be large or run the other way. The list shows a part of the results.
Possible outcomes: 1.0 = active, 0.0 = inactive

* CCOC(=O)Cn1c(=O)c2c(nc(N3CCOCC3)n2Cc2ccccc2)n(C)c1=O | 1.0
* CN1CCc2c(sc(NC(=O)CSc3ccc(F)cc3)c2-c2nc3ccccc3s2)C1 | 0.0
* Cc1cc(C)cc(-n2c(SCC(N)=O)nc3c([nH]c4ccccc43)c2=O)c1 | 0.0
* Cc1ccc(-n2c(SCC(=O)Nc3cccc(Cl)c3)nc3n[nH]c(C)c3c2=N)cc1 | 0.0
* CCOc1ccc(NC(=O)c2nc(S(=O)(=O)Cc3ccccc3F)ncc2Cl)cc1 | 1.0
* Cc1ccc(OCC(=O)Nc2ccc3nc(Nc4cccc(Cl)c4)cc(C)c3c2)cc1 | 1.0
* COc1ccc(-n2c(SCCC(C)C)nc3sc4c(c3c2=O)CC(C(C)C)OC4)cc1 (stereo unspecified) | 0.0
* CCN(CC)c1cc(C)c2cc(NC(=O)c3ccccc3Cl)ccc2n1 | 0.0
* COc1ccc(C(=O)c2cn(Cc3cccc(C)c3)c3cc4c(cc3c2=O)OCO4)cc1 | 0.0
* Cc1cccc(NS(=O)(=O)c2ccc3[nH]c4c(c3c2)CCCCCC4)c1 | 0.0
* CCOc1ccc(C2=C(C(C)=O)Sc3nnc(C)n3N2C(C)=O)cc1 | 0.0
* O=C(NCc1ccc(Cl)cc1Cl)c1cccc(N2CCCS2(=O)=O)c1 | 0.0
* Cc1ccc(-n2cnc3cc(C(=O)NCCC4=CCCCC4)ccc32)cc1Cl | 0.0
* COc1cc(C(=O)n2nc(C)c(Sc3ccc(Cl)cc3)c2C)cc(OC)c1OC | 1.0
* CCCN1C(=O)CN(C2CCCCCC2)C(=O)C1c1ccc(OCC)c(OC)c1 (stereo unspecified) | 0.0
* COc1ccc(NC(=O)c2c(C)oc3ccc(O)c(CN4CCC(C)CC4)c23)cc1Cl | 1.0
* COc1ccc(NC(=O)c2c(C)oc3ccc(O)c(CN4CCN(Cc5ccccc5)CC4)c23)cc1Cl | 0.0
* CCc1cccc(NC(=O)c2ccc(CNS(=O)(=O)c3ccc4c(c3)C(C)(C)C(=O)N4C)cc2)c1 | 0.0
* Fc1ccc(C(NCCc2ccccc2)c2nnc(-c3ccccc3Cl)o2)cc1 (stereo unspecified) | 0.0
* Cc1ccc(CN2C(=O)C(=O)c3cc(Br)cc(C)c32)cc1 | 1.0
* Cc1ccc(NC(=O)c2c(C)oc3ccc(O)c(CN4CCCCCC4)c23)cc1 | 0.0
* Oc1cccc(Nc2nc(-c3ccccc3)nc3ccccc23)c1 | 0.0
* CCn1c(CN2CCOCC2)nc2cc(NC(=O)c3ccccc3[N+](=O)[O-])ccc21 | 0.0
* Cc1oc2ccc(O)c(CN3CCCCCC3)c2c1C(=O)Nc1cccc(Cl)c1C | 0.0
* CCCCOc1ccc(CN2C(=O)C(=O)c3cc(Br)cc(C)c32)cc1OC | 1.0
* CC(=O)c1ccc(C(=O)N(CCCN(C)C)c2nc3c(C)c(C)ccc3s2)cc1 | 1.0
* CCOc1ccccc1CC1C(=O)Nc2ccc(Br)cc21 (stereo unspecified) | 0.0
* Cc1oc2ccc(O)c(CN(C)Cc3ccccc3)c2c1C(=O)Nc1ccccc1 | 0.0
* CC1CCN(C(=O)CN2c3ccc(C(C)C)cc3-c3ccccc3S2(=O)=O)CC1 | 0.0
* COCCn1c(=N)c(C(=O)NCc2ccco2)cc2c(=O)n3cc(C)ccc3nc21 | 1.0
* O=C(Nc1ccc(Br)cc1F)c1cc(S(=O)(=O)NC2CCCC2)ccc1F | 0.0
* CC1C(=O)N2CCCc3cc(S(=O)(=O)Nc4ccc(Br)cc4F)cc1c32 (stereo unspecified) | 1.0
* CCc1ccccc1NC(=O)CSc1nnc(COc2ccccc2Cl)o1 | 0.0
* Cc1ccccc1Cn1c(CN2CCC(C(=O)NCCN(C)C)CC2)cc2ccccc21 | 1.0
* O=C(Nc1ccc(F)cc1F)N1CCN(c2ccc(Cl)c(Cl)c2)CC1 | 0.0
* CCOC(=O)Cn1c(=O)n(-c2ccccc2OC)c2nc(-c3ccccc3F)nc(C(N)=O)c21 | 0.0
